In what follows, each item is paired with its AC50 for Motilin receptor (Homo sapiens).
Where a SMILES comes first, the peptide text is derived from it. [ ]: non-standard residue; d: D form. pGlu = O=C1CC[C@@H](C(=O)O)N1; Thz = O=C(O)[C@@H]1CSCN1

- COMPOUND: "CCOC(=O)c1ccc(N)cc1"
  AC50: "> 10 µM"
- COMPOUND: "CCc1nc(N)nc(N)c1-c1ccc(Cl)cc1"
  AC50: "> 10 µM"
- COMPOUND: "CCCN(CCC)S(=O)(=O)c1ccc(C(=O)O)cc1"
  AC50: "> 10 µM"
- COMPOUND: "O=C1OC(OC(=O)c2cccnc2Nc2cccc(C(F)(F)F)c2)c2ccccc21 (centres undefined) [TALNIFLUMATE]"
  AC50: "> 30 µM"
- COMPOUND: "CC(C)[C@H](N)C(=O)OCCOCn1cnc2c(=O)[nH]c(N)nc21"
  AC50: "> 10 µM"
- COMPOUND: "Cc1ccccc1-n1c(CF)nc2ccc(N)cc2c1=O"
  AC50: "> 30 µM"
- COMPOUND: "Fc1ccc([C@@H]2CCNC[C@H]2COc2ccc3c(c2)OCO3)cc1"
  AC50: "> 10 µM"
- COMPOUND: "CC(C)(Oc1ccc(CCNC(=O)c2ccc(Cl)cc2)cc1)C(=O)O [BEZAFIBRATE]"
  AC50: "> 10 µM"
- COMPOUND: "COc1cc(C(=O)NS(=O)(=O)c2ccccc2C)ccc1Cc1cn(C)c2ccc(NC(=O)OC3CCCC3)cc12"
  AC50: "> 10 µM"
- COMPOUND: "CCCCOc1ccc(C(=O)CCN2CCCCC2)cc1"
  AC50: "> 10 µM"
- COMPOUND: "CC(C)[C@@H](C)/C=C/[C@@H](C)[C@H]1CC[C@H]2/C(=C/C=C3\\C[C@@H](O)CC[C@@H]3C)CCC[C@]12C [DIHYDROTACHYSTEROL]"
  AC50: "> 10 µM"
- COMPOUND: "Cn1c(=O)c2c(ncn2CCOC(=O)C(C)(C)Oc2ccc(Cl)cc2)n(C)c1=O [THEOFIBRATE]"
  AC50: "> 30 µM"
- COMPOUND: "O=C(O)Cc1ccccc1Nc1c(Cl)cccc1Cl"
  AC50: "> 10 µM"
- COMPOUND: "O=C1c2cccc3c2[C@H](CCC3)CN1[C@@H]1CN2CCC1CC2"
  AC50: "> 30 µM"
- COMPOUND: "O=C1Cc2cc(CCN3CCN(c4nsc5ccccc45)CC3)c(Cl)cc2N1"
  AC50: "> 10 µM"
- COMPOUND: "Cc1cccc(C)c1NC(=O)CC12CCCN1CCC2 [PILSICAINIDE]"
  AC50: "> 30 µM"
- COMPOUND: "C[C@@H]1C[C@H]2[C@@H]3C[C@H](F)C4=CC(=O)C=C[C@]4(C)[C@@]3(F)[C@@H](O)C[C@]2(C)[C@@]1(OC(=O)c1ccco1)C(=O)SCF [FLUTICASONE FUROATE]"
  AC50: "> 10 µM"
- COMPOUND: "CN[C@]1(c2ccccc2Cl)CCCCC1=O"
  AC50: "> 30 µM"
- COMPOUND: "C=CCN1CCc2nc(N)sc2CC1 [TALIPEXOLE]"
  AC50: "> 30 µM"
- COMPOUND: "CC/C=C\\C/C=C\\C/C=C\\C/C=C\\C/C=C\\CCCC(=O)OCC"
  AC50: "> 30 µM"
- COMPOUND: "C[C@@H]1C[C@H]2[C@@H]3CCC4=CC(=O)C=C[C@]4(C)[C@@]3(F)[C@@H](O)C[C@]2(C)[C@@]1(O)C(=O)CO"
  AC50: "> 30 µM"
- COMPOUND: "CCCCCCCN(CC)CCCC(O)c1ccc(NS(C)(=O)=O)cc1 (centres undefined) [IBUTILIDE]"
  AC50: "> 30 µM"
- COMPOUND: "CC(CN(C)C)C(C)(O)Cc1ccc(Cl)cc1 (centres undefined)"
  AC50: "> 10 µM"
- COMPOUND: "CC(Cc1cccc(C(F)(F)F)c1)NCCOC(=O)c1ccccc1 (centres undefined)"
  AC50: "> 30 µM"
- COMPOUND: "CC(C)N(CCCCOCC(=O)O)c1cnc(-c2ccccc2)c(-c2ccccc2)n1"
  AC50: "> 30 µM"
- COMPOUND: "CCC[C@@H]1C[C@@H](C(=O)N[C@@H]([C@H]2O[C@H](SC)[C@H](O)[C@@H](O)[C@H]2O)[C@@H](C)O)N(C)C1"
  AC50: "> 10 µM"
- COMPOUND: "C[N+]12CCC(CC1)C(OC(=O)C(O)(c1ccccc1)c1ccccc1)C2 (centres undefined)"
  AC50: "> 30 µM"
- COMPOUND: "COc1ccc(CN2CCN(C(c3ccc(F)cc3)c3ccc(F)cc3)CC2)c(OC)c1OC"
  AC50: "> 30 µM"
- COMPOUND: "O=C(O)COCCN1CCN(C(c2ccccc2)c2ccc(Cl)cc2)CC1 (centres undefined)"
  AC50: "> 10 µM"
- COMPOUND: "CC[C@@H](CO)NC(=O)[C@@H]1C=C2c3cccc4c3c(cn4C)C[C@H]2N(C)C1 [METHYSERGIDE]"
  AC50: "> 10 µM"
- COMPOUND: "O=C(O)Cc1ccccc1Oc1ccc(Cl)cc1Cl"
  AC50: "> 10 µM"
- COMPOUND: "O=C(NCCO[N+](=O)[O-])c1cccnc1"
  AC50: "> 30 µM"
- COMPOUND: "O=C1CC[C@@H](C(=O)N2CSC[C@H]2C(=O)O)N1 [PIDOTIMOD] ([pGlu]-[Thz]-OH)"
  AC50: "> 30 µM"
- COMPOUND: "CCN1CC(CCN2CCOCC2)C(c2ccccc2)(c2ccccc2)C1=O (centres undefined)"
  AC50: "> 30 µM"
